Entries and their microsomal CLint values follow.
- measurement-protocol: Metabolic stability in monkey liver microsomes assessed as intrinsic clearance measured per mg protein
- Type: ADME, Macaca mulatta, Microsome
- particulars: rhesus monkey, read-out: CLH
measure-name: microsomal CLint (µL/min/mg)

INSERT INTO measurements (molecule, experimental_result) VALUES
  ('C=CC(=O)N1CCN(c2c(C#N)c(=O)n(-c3c(C)ccnc3C(C)C)c3nc(-c4c(N)c(F)c(F)c(F)c4F)c(Cl)cc23)CC1 (atropisomer M) [GLECIRASIB]', 30.4),
  ('C=CC(=O)N1CCN(c2c(C#N)c(=O)n(-c3c(C)ccnc3C(C)C)c3nc(-c4c(F)c(F)c(F)c(N)c4Cl)c(Cl)cc23)CC1 (atropisomer M)', 31.3),
  ('C=CC(=O)N1CCN(c2c(C#N)c(=O)n(-c3c(C)ccnc3C(C)C)c3nc(-c4c(N)c(Cl)cc(Cl)c4F)c(Cl)cc23)CC1 (atropisomer M)', 26.1);

---

- measurement-protocol: Oral bioavailability in female BALB/c mouse at 10 mg/kg administered as single dose by LC-MS/MS analysis
- Type: ADME, organism-based
- particulars: in vivo
compounds and their reported bioavailability
measure-name: bioavailability (%)

INSERT INTO results (compound, measure_name, unit_name, experimental_result) VALUES
  ('C=CC(=O)N1CCN(c2c(C#N)c(=O)n(-c3c(C)ccnc3C(C)C)c3nc(-c4c(N)c(F)c(F)c(F)c4F)c(Cl)cc23)CC1 (atropisomer M) [GLECIRASIB]', 'bioavailability', '%', 43.9),
  ('C=CC(=O)N1CCN(c2c(C#N)c(=O)n(-c3c(C)ccnc3C(C)C)c3nc(-c4c(N)cccc4F)c(Cl)cc23)CC1', 'bioavailability', '%', 8.05),
  ('C=CC(=O)N1CCN(c2c(C#N)c(=O)n(-c3c(C)ccnc3C(C)C)c3nc(-c4c(N)c(Cl)cc(Cl)c4F)c(Cl)cc23)CC1 (atropisomer M)', 'bioavailability', '%', 51.2);

---

- measurement-protocol: Apparent permeability across basolateral to apical side in MDCK cells
- Assay type: ADME, cell-based, Canis lupus familiaris
- particulars: dog
measure-name: Papp B→A

INSERT INTO assay_data (molecule, experimental_result) VALUES
  ('C=CC(=O)N1CCN(c2c(C#N)c(=O)n(-c3c(C)ccnc3C(C)C)c3nc(-c4c(N)c(Cl)cc(Cl)c4F)c(Cl)cc23)CC1 (atropisomer M)', '6.95 ×10⁻⁶ cm/s'),
  ('C=CC(=O)N1CCN(c2c(C#N)c(=O)n(-c3c(C)ccnc3C(C)C)c3nc(-c4c(N)c(F)c(F)c(F)c4F)c(Cl)cc23)CC1 (atropisomer M)', '10.8 ×10⁻⁶ cm/s');

---

- measurement-protocol: Apparent permeability of compound across apical to basolateral side in human Caco-2 cells
- Assay type: ADME, cell-based
Rule: Papp A→B below 0.2 ×10⁻⁶ cm/s gives satisfied. Equal to or above 0.2 ×10⁻⁶ cm/s gives not satisfied.

INSERT INTO measurements (molecule, category_label) VALUES
  ('C=CC(=O)N1CCN(c2c(C#N)c(=O)n(-c3c(C)ccnc3C(C)C)c3nc(-c4ccccc4F)c(F)cc23)CC1', 'not satisfied'),
  ('C=CC(=O)N1CCN(c2c(C#N)c(=O)n(-c3c(C)ccnc3C(C)C)c3nc(-c4c(O)cccc4F)c(F)cc23)CC1', 'not satisfied'),
  ('C=CC(=O)N1[C@H](C)CN(c2c(C#N)c(=O)n(-c3c(C)ccnc3C(C)C)c3nc(-c4c(O)cccc4F)c(F)cc23)C[C@@H]1C', 'satisfied'),
  ('C=CC(=O)N1CCN(c2c(C#N)c(=O)n(-c3c(C)ccnc3C(C)C)c3nc(-c4c(O)cccc4F)c(F)cc23)[C@@H](C)C1', 'not satisfied'),
  ('C=CC(=O)N1CCN(c2c(C#N)c(=O)n(-c3c(C)ccnc3C(C)C)c3nc(-c4c(O)cccc4F)c(F)cc23)CC1CC#N (stereo not given)', 'satisfied');
